From: patent US8163909B2

# measured.target: CYP2D6 (Homo sapiens)
# Sequence (P10635 whole entry): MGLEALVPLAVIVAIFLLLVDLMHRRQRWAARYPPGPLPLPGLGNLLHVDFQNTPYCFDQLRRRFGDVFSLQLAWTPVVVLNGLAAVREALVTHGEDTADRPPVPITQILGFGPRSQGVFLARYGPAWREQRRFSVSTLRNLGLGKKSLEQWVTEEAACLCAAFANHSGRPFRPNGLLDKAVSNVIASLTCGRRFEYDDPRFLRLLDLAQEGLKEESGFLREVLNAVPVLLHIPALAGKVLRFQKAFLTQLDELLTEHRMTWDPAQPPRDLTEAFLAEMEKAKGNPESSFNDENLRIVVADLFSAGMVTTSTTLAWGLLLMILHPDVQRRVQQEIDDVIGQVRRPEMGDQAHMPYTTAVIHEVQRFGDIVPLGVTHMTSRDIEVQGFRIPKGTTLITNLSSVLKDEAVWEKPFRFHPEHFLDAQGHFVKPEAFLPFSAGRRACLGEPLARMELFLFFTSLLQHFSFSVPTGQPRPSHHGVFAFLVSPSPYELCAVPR
# assay.explanation: CYP2D6 inhibition assay (bufuralol, pooled human liver microsomes)
# condition.summary: 2D6 IC50, CYP enzyme inhibition
IC50 strictly under 2000 nM means yes (1); at 2000 nM or over means no (0).

Determine whether this molecule shows IC50 lower than 2000 nM (ties excluded): `CC(C)(C)Cc1cnc2c(c1)[C@@H](NC[C@@H](O)[C@H](Cc1cccc(C#N)c1)NC(=O)c1ncccc1F)CC1(CC(F)(F)C1)O2` no (0)

Determine whether this molecule shows IC50 lower than 2000 nM (ties excluded): `CO[C@H](C)C(=O)N[C@@H](Cc1cccc(-c2nccs2)c1F)[C@H](O)CN[C@H]1CC2(CCC2)Oc2ncc(CC(C)(C)C)cc21` yes (1)

Determine whether this molecule shows IC50 lower than 2000 nM (ties excluded): `CO[C@H](C)C(=O)N[C@@H](Cc1cc(Cl)ccc1F)[C@H](O)CN[C@H]1CC2(CCC2)Oc2ncc(CC(C)(C)C)cc21` no (0)

Determine whether this molecule shows IC50 lower than 2000 nM (ties excluded): `COCC(=O)N[C@@H](Cc1ccc(F)cc1)[C@H](O)CN[C@H]1CC2(CCC2)Oc2c1cc(CC(C)(C)C)nc2-c1nccs1` no (0)

Determine whether this molecule shows IC50 lower than 2000 nM (ties excluded): `C#Cc1cccc(C[C@H](NC(=O)[C@@H]2CCCO2)[C@H](O)CN[C@H]2CC3(CCC3)Oc3ncc(CC(C)(C)C)cc32)c1F` no (0)

Determine whether this molecule shows IC50 lower than 2000 nM (ties excluded): `C#Cc1cccc(C[C@H](NC(=O)COC)[C@H](O)CN[C@H]2C[C@@]3(CCOC3)Oc3ncc(CC(C)(C)C)cc32)c1` no (0)

Determine whether this molecule shows IC50 lower than 2000 nM (ties excluded): `COCC(=O)N[C@@H](Cc1ccc2c(c1)OCO2)[C@H](O)CN[C@H]1CC2(CCC2)Oc2nc(F)c(CC(C)(C)C)cc21` yes (1)

Determine whether this molecule shows IC50 lower than 2000 nM (ties excluded): `COCC(=O)N[C@@H](Cc1cc(F)cc(-c2nccs2)c1)[C@H](O)CN[C@]1(C)CC2(CCC2)Oc2ncc(CC(C)(C)C)cc21` yes (1)
